# target.of.assay: T1, polypeptide GC3pep (human)
# T1 construct: also called membrane proximal polypeptide GC3pep
# T1 peptide: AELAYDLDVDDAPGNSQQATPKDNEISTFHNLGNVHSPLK
# assay.procedure: ELISA, GC3pep coated, antibody 0.1 nM;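 further: antibody allowed to bind the coated plate 2 h at 37 °C, then detected via HRP-conjugated secondary antibody and TMB development for 10 min, stopped with HCl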
As shown below, each of these binders has a reported OD450 nm value.
Give a bare numeral; the unit OD450 nm is implied.

The examples below pair each entry with its known result.
binder: F4.21.16 (antibody, human IgG1, kappa, V domains shown, human-murine chimeric antibody) VH: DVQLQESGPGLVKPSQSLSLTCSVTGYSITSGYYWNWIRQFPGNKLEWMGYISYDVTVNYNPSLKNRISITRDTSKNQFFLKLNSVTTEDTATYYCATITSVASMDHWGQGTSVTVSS VL: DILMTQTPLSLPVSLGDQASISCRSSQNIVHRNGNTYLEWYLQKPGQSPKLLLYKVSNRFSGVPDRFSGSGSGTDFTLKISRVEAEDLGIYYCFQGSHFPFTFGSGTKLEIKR
OD450 nm (OD450 nm): 0.03

binder: F3.38.7 (antibody, human IgG1, kappa, V domains shown, human-murine chimeric antibody) VH: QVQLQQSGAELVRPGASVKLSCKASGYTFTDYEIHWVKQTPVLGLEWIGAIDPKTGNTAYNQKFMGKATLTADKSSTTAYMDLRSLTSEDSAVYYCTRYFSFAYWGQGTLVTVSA VL: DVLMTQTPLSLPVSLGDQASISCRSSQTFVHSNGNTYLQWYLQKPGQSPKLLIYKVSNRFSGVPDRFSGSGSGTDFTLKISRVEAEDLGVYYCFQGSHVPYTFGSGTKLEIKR
OD450 nm (OD450 nm): 1.01

binder: F1.83.6 (antibody, human IgG1, kappa, V domains shown, human-murine chimeric antibody) VH: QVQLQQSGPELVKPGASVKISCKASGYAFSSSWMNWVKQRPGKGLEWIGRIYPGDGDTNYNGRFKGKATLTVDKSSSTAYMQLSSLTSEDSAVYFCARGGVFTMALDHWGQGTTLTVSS VL: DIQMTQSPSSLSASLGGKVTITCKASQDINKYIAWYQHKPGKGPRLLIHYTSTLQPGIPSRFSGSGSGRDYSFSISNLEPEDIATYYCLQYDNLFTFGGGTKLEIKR
OD450 nm (OD450 nm): 0.05

[ask] Suppose we examine the binder F3.54.12 (antibody, human IgG1, kappa, V domains shown, human-murine chimeric antibody) VH: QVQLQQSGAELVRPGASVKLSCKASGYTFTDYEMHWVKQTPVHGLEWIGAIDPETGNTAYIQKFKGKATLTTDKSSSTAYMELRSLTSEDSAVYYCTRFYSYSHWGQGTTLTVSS VL: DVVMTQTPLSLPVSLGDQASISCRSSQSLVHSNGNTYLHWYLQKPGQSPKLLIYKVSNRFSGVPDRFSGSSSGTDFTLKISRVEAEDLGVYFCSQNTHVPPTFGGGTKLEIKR ; what OD450 nm value has been reported?
[reply] 1.63

[ask] Bench note: what OD450 nm did F1.73.9 (antibody, human IgG1, kappa, V domains shown, human-murine chimeric antibody) VH: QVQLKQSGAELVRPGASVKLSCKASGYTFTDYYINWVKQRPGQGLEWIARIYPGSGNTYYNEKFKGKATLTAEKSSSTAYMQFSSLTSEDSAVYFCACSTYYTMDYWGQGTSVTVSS VL: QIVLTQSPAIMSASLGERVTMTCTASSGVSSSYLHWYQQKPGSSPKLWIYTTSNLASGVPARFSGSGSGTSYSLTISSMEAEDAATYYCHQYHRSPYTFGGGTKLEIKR show?
[reply] 0.05
